# assayed.system: PDE6D (phosphodiesterase 6 delta), wild type, polyhistidine tag removed (UniProt O43924 1-150)
# measurement.description: FP; + compound-1, replicate 2
*: point of attachment. Farnesyl = CC(C)=CCC/C(C)=C/CC/C(C)=C/C*
measurement.type: pKd
The meaning of pKd here: minus log10 of the concentration in molar units.

Incoming: Could you share which pKd value was measured for {FAM}-KKKKKKSKTKC(Farnesyl)-OMe [fluorescein-labeled KRAS HVR peptide, FAM-KKKKKKSKTKC(OMe)-Far] ?
Outgoing: 5.77
